Origin of values: PubChem BioAssay AID977629

- test-description: growth inhibition of wild-type RFP versus h24-humanized GFP E. coli, dose response, h24 mutant GFP vs wild-type RFP, cherry-pick (AID 977629)
- condition-summary: E. coli WT-RFP / h24-humanized GFP mixed culture, 24 h; at 50 µM (top of the series)
Results filed as inconclusive are left out.
measured-parameter: activity change, negative = inhibition

{"chemical-smiles": "CCN(CC)CCn1c2ccccc2c2nc3ccc([N+](=O)[O-])cc3cc21", "reported-measurement": 21.8}
{"chemical-smiles": "Cc1noc(C)c1NC(=O)Nc1ccc2c(c1)C(=O)N([C@H](C)CO)C[C@@H](C)[C@@H](CN(C)C(=O)Nc1ccc3c(c1)OCO3)OCCCC[C@@H](C)O2", "reported-measurement": 86.8}
{"chemical-smiles": "O=C(O)c1cc([N+](=O)[O-])ccc1NCc1ccccc1", "reported-measurement": -0.454}
{"chemical-smiles": "Cc1ccc(C)c(NC(=O)CSc2nc3nc(-c4cccs4)cc(C(F)(F)F)c3c(=O)[nH]2)c1", "reported-measurement": 52.6}
